Molecular target: Sirt2_56–356 (Homo sapiens, UniProt Q8IXJ6)
Construct: human strep-tagged Sirt2_56–356 was expressed and purified; strep-tag; made in house
Test: Fluorescence polarization assay (FPA), displacement of SirReal-TAMRA probe
Format: binding
Details: 125 µM compound
Metric name: FP-Assay Inhibition (%) at 125 µM

CCOC(=O)Cc1ccc(OC)cc1 [No. 16] | 23.1

a. CNCc1ccc(N2CCOCC2)s1 [No. 13]
b. CC(=O)c1c(O)cccc1OCCC(C)C [No. 22]
Query :: Compare a and b and name the one whose reported FP-Assay Inhibition (%) at 125 µM is smaller. Select an item and report its label.
Result :: a

----------
Target: Sirt2_56–356 (Homo sapiens, UniProt Q8IXJ6)
Construct: human strep-tagged Sirt2_56–356 was expressed and purified; strep-tag; made in house
Assay: Fluorescence polarization assay (FPA), displacement of SirReal-TAMRA probe
Assay type: binding
Conditions: 500 µM compound
Protocol: Blank controls contained 19 μL of assay buffer and 1 μL DMSO. Negative controls (P neg) used 1 μL Mz242 (20 μM final concentration), while positive controls (Ppos) replaced the inhibitor with 1 μL DMSO. […] Fluorescence intensities were measured with an EnVision plate reader (PerkinElmer, optical module – BODIPY TMR FP, excitation filter – FP 531 nm, emission filter 1 – FP p-pol 595 nm, emission filter 2 – FP s-pol 595 nm). […]
Metric name: FP-Assay Inhibition (%) at 500 µM

Answered examples (2):
Cc1ccc(=O)n(Cc2ccc(Cl)cc2)n1 | 41.9
CN(C(=O)c1cccs1)C1CC2CCC1C2 (stereo not shown) | 10.3

1. C#Cc1ccc(-c2cnco2)cc1
2. Nc1nc(-c2ccc(F)c(F)c2)cs1
Query :: Looking at 1 and 2 , which one comes out lower in FP-Assay Inhibition (%) at 500 µM terms? Your answer should be the label attached to the chosen record.
Result :: 2

----------
Biological target: Sirt2_56–356 (Homo sapiens)
Construct: human strep-tagged Sirt2_56–356 was expressed and purified; strep-tag; made in house
Sequence (Q8IXJ6 56-356): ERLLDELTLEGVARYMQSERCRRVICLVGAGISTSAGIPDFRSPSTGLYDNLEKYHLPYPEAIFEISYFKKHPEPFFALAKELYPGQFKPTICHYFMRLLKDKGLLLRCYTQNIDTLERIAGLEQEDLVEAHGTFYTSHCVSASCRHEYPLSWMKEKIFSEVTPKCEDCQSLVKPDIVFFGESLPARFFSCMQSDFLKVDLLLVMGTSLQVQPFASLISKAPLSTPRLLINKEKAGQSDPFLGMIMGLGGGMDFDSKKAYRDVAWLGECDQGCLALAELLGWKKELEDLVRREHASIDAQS
Assay: Fluorescence thermal shift assay (DSF)
Assay type: binding
Conditions: 2000 µM compound, 6.0 μM Sirt2
Metric name: FTS-Assay Thermal shift at 2000 µM (°C)

Use these answered entries as a reference point.
Nc1nc(-c2ccc(F)c(F)c2)cs1 | 0.0
Cc1ccc(=O)n(Cc2ccc(Cl)cc2)n1 | 0.1
Clc1ccc2ncccc2c1 | 0.2

P. CCOC(=O)Cc1ccc(OC)cc1
Q. Nc1ccccc1-c1cccs1
Query :: Which record shows the lower FTS-Assay Thermal shift at 2000 µM: the first, P , or the second, Q ? Select an item and report its label.
Result :: Q
(Q: 0.0 °C, P: 0.4 °C)

----------
Target: Sirt2_56–356 (Homo sapiens)
Construct: human strep-tagged Sirt2_56–356 was expressed and purified; strep-tag; made in house
Test: Fluorescence polarization assay (FPA), displacement of SirReal-TAMRA probe
Assay type: binding
Conditions: 2000 µM compound
Metric name: FP-Assay Inhibition (%) at 2000 µM

For orientation, consider the following solved cases.
Clc1ccc2ncccc2c1 | 87.3
Nc1ccccc1-c1cccs1 | 104.2
c1ccc2c(CN3CCOCC3)csc2c1 | 91.9
CCOC(=O)c1cccc(-c2nccs2)c1 | 97.0
CC1(C)CC(=O)c2c(SCCO)sc(C#N)c2C1 | 91.5
N#CCOc1cc(Cl)cc(Cl)c1 | 90.3
Nc1nc(-c2ccc(F)c(F)c2)cs1 | 91.3
Cc1ccc(=O)n(Cc2ccc(Cl)cc2)n1 | 90.8

P. CC(=O)c1c(O)cccc1OCCC(C)C
Q. CNCc1ccc(N2CCOCC2)s1
Query :: Which value of FP-Assay Inhibition (%) at 2000 µM is numerically greater: that of P or that of Q ? Write the label of whichever entry you select.
Result :: Q
(Q: 95.1%, P: 56.5%)

1. CN(C(=O)c1cccs1)C1CC2CCC1C2 (stereo not drawn)
2. CC1Sc2ccccc2NC(=O)C1C (stereo not drawn)
Query :: For the pair 1 and 2 , which entry has the numerically smaller recorded FP-Assay Inhibition (%) at 2000 µM? Lab log: write the label of the selected item as the result.
Result :: 1
(1: 43.8%, 2: 101.0%)

----------
Molecular target: Sirt2_56–356 (Homo sapiens)
Construct: human strep-tagged Sirt2_56–356 was expressed and purified; strep-tag; made in house
Assay: Fluorescence polarization assay (FPA), displacement of SirReal-TAMRA probe
Format: binding
Settings: 125 µM compound
Metric name: FP-Assay Inhibition (%) at 125 µM

Solved entries:
Cc1ccc(=O)n(Cc2ccc(Cl)cc2)n1 [No. 18] | 11.3
CN(C(=O)c1cccs1)C1CC2CCC1C2 (centres unmarked) [No. 5] | -7.4
CC1Sc2ccccc2NC(=O)C1C (centres unmarked) [No. 6] | 20.2
Clc1ccc2ncccc2c1 [No. 15] | 6.3
Nc1nc(-c2ccc(F)c(F)c2)cs1 [No. 20] | -0.9

I. COC(=O)c1sccc1-n1cccc1 [No. 7]
II. CCOC(=O)c1cccc(-c2nccs2)c1 [No. 21]
Query :: Of I and II , which one carries the higher reported FP-Assay Inhibition (%) at 125 µM? Reply briefly: the label of your chosen item.
Result :: II

P. CC1(C)CC(=O)c2c(SCCO)sc(C#N)c2C1 [No. 19]
Q. C#Cc1ccc(-c2cnco2)cc1 [No. 8]
R. CC(=O)Nc1ccc2c(c1)CCC2 [No. 4]
Query :: Thanks in advance: please rank these 3 entries by FP-Assay Inhibition (%) at 125 µM, highest to lowest. Returns: the labels listed in the requested order.
Result :: R, Q, P
(R: 32.8%, Q: 19.1%, P: 8.2%)

----------
Molecular target: Sirt2_56–356 (Homo sapiens)
Construct: human strep-tagged Sirt2_56–356 was expressed and purified; strep-tag; made in house
Assay: Fluorescence polarization assay (FPA), displacement of SirReal-TAMRA probe
Format: binding
Conditions: 500 µM compound
Metric name: FP-Assay Inhibition (%) at 500 µM

Completed entries (count: 2):
CC1(C)CC(=O)c2c(SCCO)sc(C#N)c2C1 | 40.9
COC(=O)c1sccc1-n1cccc1 | 46.9

I. CCOC(=O)Cc1cccc(Cl)c1
II. Clc1ccc2ncccc2c1
Query :: Recorded FP-Assay Inhibition (%) at 500 µM values differ for I and II ; which one is higher? // return label of chosen record
Result :: I

----------
Molecular target: Sirt2_56–356 (Homo sapiens)
Construct: human strep-tagged Sirt2_56–356 was expressed and purified; strep-tag; made in house
Sequence (Q8IXJ6 56-356): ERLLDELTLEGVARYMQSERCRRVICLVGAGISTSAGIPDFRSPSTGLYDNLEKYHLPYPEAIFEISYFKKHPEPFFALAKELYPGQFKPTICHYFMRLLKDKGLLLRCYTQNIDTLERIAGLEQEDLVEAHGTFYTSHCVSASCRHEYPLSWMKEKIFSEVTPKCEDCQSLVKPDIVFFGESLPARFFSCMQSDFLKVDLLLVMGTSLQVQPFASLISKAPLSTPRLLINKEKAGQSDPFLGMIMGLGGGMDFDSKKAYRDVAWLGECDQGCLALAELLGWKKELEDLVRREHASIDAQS
Experiment: Fluorescence polarization assay (FPA), displacement of SirReal-TAMRA probe
Type: binding
Settings: 500 µM compound
Metric name: FP-Assay Inhibition (%) at 500 µM

N#CCOc1cc(Cl)cc(Cl)c1 | 53.9
CCOC(=O)Cc1ccc(OC)cc1 | 50.5
CC(=O)Nc1ccc2c(c1)CCC2 | 61.1

----------
Target: Sirt2_56–356 (Homo sapiens, UniProt Q8IXJ6)
Construct: human strep-tagged Sirt2_56–356 was expressed and purified; strep-tag; made in house
Sequence (Q8IXJ6 56-356): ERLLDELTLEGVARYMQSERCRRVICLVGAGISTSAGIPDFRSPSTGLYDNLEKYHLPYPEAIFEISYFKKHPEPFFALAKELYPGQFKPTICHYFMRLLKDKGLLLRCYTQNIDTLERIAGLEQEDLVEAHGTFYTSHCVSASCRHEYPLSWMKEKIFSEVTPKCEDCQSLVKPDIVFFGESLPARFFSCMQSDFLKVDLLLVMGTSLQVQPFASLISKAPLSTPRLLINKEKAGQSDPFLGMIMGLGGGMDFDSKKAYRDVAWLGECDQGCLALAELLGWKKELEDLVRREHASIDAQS
Test: Fluorescence polarization assay (FPA), displacement of SirReal-TAMRA probe
Type: binding
Details: 2000 µM compound
Metric name: FP-Assay Inhibition (%) at 2000 µM

CC(=O)Nc1ccc2c(c1)CCC2 | 78.5
CCOC(=O)Cc1cccc(Cl)c1 | 99.7
COC(=O)c1sccc1-n1cccc1 | 76.2
